# System: IGF-1-induced EMT in NBT-II cells
# MEASUREMENT_DESCRIPTION: EMT spot migration assay, IGF-1-induced
# Assay type: cell-based
# COND: IGF-1-induced EMT (150 ng/ml IGF-1), CDR dose response from 6.67 μM, read-out: Cell Dispersion IC 50, IGF-1
pIC50: −log10 of the molar value.
METRIC_NAME: pIC50

STRUCTURE_SMILES | pIC50
Cc1ccc(-c2nn(C(C)(C)C)c3ncnc(N)c23)cc1 | 5.92
COc1ccc2c(c1OC)N=C(NC(=O)c1cccnc1)N1CCN=C21 | 6.21
Cn1cnc2c(F)c(Nc3ccc(Br)cc3Cl)c(C(=O)NOCCO)cc21 | 6.06
c1ccc(-c2[nH]ncc2-c2ccnc3ccccc23)nc1 | 6.62

I: NC(=O)c1ccc(-c2nc(-c3ccc4c(c3)OCO4)c(-c3ccccn3)[nH]2)cc1
II: CN1CCN(CCOc2cc(OC3CCOCC3)c3c(Nc4c(Cl)ccc5c4OCO5)ncnc3c2)CC1
III: Oc1cccc(-c2nc(N3CCOCC3)c3oc4ncccc4c3n2)c1
Reorder the items by pIC50, least to greatest. Use the labels to give the ranking in the order requested.
I, III, II

---

# Tested on: IGF-1-induced EMT in NBT-II cells
# MEASUREMENT_DESCRIPTION: EMT spot migration assay, IGF-1-induced
# Type: cell-based
# COND: IGF-1-induced EMT (150 ng/ml IGF-1), CDR dose response from 6.67 μM, read-out: Cell Dispersion IC 50, IGF-1
pIC50: −log10 of the molar value.
METRIC_NAME: pIC50

Here is how some molecules turned out for pIC50.
STRUCTURE_SMILES | pIC50
Fc1ccc(Cl)cc1-c1nc(Nc2ccncc2)c2nccnc2n1 | 6.82
FC(F)c1nc2ccccc2n1-c1nc(N2CCOCC2)nc(N2CCOCC2)n1 | 6.18
O=C(NOC[C@H](O)CO)c1ccc(F)c(F)c1Nc1ccc(I)cc1F | 8.05

a: CS(=O)(=O)N1CCN(Cc2cc3nc(-c4cccc5[nH]ncc45)nc(N4CCOCC4)c3s2)CC1
b: O=C(NOCC1CC1)c1ccc(F)c(F)c1Nc1ccc(I)cc1Cl
c: NC(=O)c1ccc(-c2nc(-c3ccc4c(c3)OCCO4)c(-c3ccccn3)[nH]2)cc1
// ascending sort on recorded pIC50 Dear reader, please state the labels in the requested order.
c, b, a

---

# Tested on: HGF-induced EMT in NBT-II cells
# MEASUREMENT_DESCRIPTION: EMT spot migration assay, HGF-induced
# Format: cell-based
# COND: HGF-induced EMT (4 ng/ml HGF), CDR dose response from 6.67 μM, read-out: Cell Dispersion IC 50, HGF
METRIC_NAME: IC50 (nM)

Consider the following illustrative entries.
MOLECULE | IC50 / nM
O=C(NOCC1CC1)c1ccc(F)c(F)c1Nc1ccc(I)cc1Cl [CI-1040] | 820
NC(=O)c1ccc(-c2nc(-c3ccc4c(c3)OCO4)c(-c3ccccn3)[nH]2)cc1 [SB-431542] | 940

a: Cn1cnc2c(F)c(Nc3ccc(Br)cc3Cl)c(C(=O)NOCCO)cc21 [AZD6244]
b: NC(=O)c1ccc(-c2nc(-c3ccc4c(c3)OCCO4)c(-c3ccccn3)[nH]2)cc1 [D4476]
Name the one with the greater IC50 value, either a or b as given. Write the label of whichever entry you select.
b
(b: 1400 nM, a: 790 nM)

---

# System: IGF-1-induced EMT in NBT-II cells
# MEASUREMENT_DESCRIPTION: EMT spot migration assay, IGF-1-induced
# Assay type: cell-based
# COND: IGF-1-induced EMT (150 ng/ml IGF-1), CDR dose response from 6.67 μM, read-out: Cell Dispersion IC 50, IGF-1
pIC50: −log10 of the molar value.
METRIC_NAME: pIC50

Consider the compound shown here: `COc1cc2ncnc(Nc3cccc(Br)c3)c2cc1OC` What is its recorded pIC50?
< 5.30

I have this compound here, `Cn1cc(-c2ccc3nnc(C(F)(F)c4ccc5ncccc5c4)n3n2)cn1` , and I need its recorded pIC50.
< 5.30

Would you mind telling me what pIC50 value was observed for `OCCn1cc(-c2cnc3nnn(Cc4ccc5ncccc5c4)c3n2)cn1` ?
< 5.30

The origin of these recorded values is patent US20150004620A1.
